Reference source for all entries: patent US20060257938A1

Please respond with reported DR/DR LNA for every item in the list.
# PROCEDURE_TEXT: Probe fluorescence ratio response to linolenic acid relative to ADIFAB2
# Type: binding
# STATED_CONDITIONS: response relative to ADIFAB2
# Text: In an alternate preferred embodiment, the protein is rI-FABP that has Ala substituted for Leu at position 72 (rI-FABP-L72A) with the resulting probe named ADIFAB2. […] ADIFAB2 also has an altered spectral response, making it especially useful for measurements of FFAu in blood samples (Apple et al, Clinical Proteomics, (2004) 1:41-44, U.S. patent application Ser. No. 10/670,958). […] The baseline value for this ratio, measured in the absence of analyte, is designated R0. […]
# respond with the number and nothing more

*Q* Could you share which DR/DR LNA value was measured for 14A 18Y 31W 73G 117V 72A (protein, listed as Rattus norvegicus, PEPTIDE (1)...(131) wild-type rat intestinal fatty acid binding protein) AFDGTWKVDRNENAEKFYEKMGINVVKRKLWAHDNLKLTITQEGNKFTVKESSNFRNIDVVFELGVDFAYSAGDGTELTGTWTMEGNKLVGKFKRVDNGKELIAVREISGNELIQTVTYEGVEAKRIFKKE ?
*A* 0.940

*Q* Could you share which DR/DR LNA value was measured for 106L3, 72A (protein, listed as Rattus norvegicus, PEPTIDE (1)...(131) wild-type rat intestinal fatty acid binding protein) AFDGTWKVDRNENYEKFMEKMGINVVKRKLGAHDNLKLTITQEGNKFTVKESSNFRNIDVVFELGVDFAYSAADGTELTGTWTMEGNKLVGKFKRVDNGKELIAVLEISGNELIQTYTYEGVEAKRIFKKE ?
*A* 0.84

*Q* Could you share which DR/DR LNA value was measured for 55I, 72A (protein, listed as Rattus norvegicus, PEPTIDE (1)...(131) wild-type rat intestinal fatty acid binding protein) AFDGTWKVDRNENYEKFMEKMGINVVKRKLGAHDNLKLTITQEGNKFTVKESSNIRNIDVVFELGVDFAYSAADGTELTGTWTMEGNKLVGKFKRVDNGKELIAVREISGNELIQTYTYEGVEAKRIFKKE ?
*A* 0.885

*Q* Could you share which DR/DR LNA value was measured for 72W 73T 74G (protein, listed as Rattus norvegicus, PEPTIDE (1)...(131) wild-type rat intestinal fatty acid binding protein) AFDGTWKVDRNENYEKFMEKMGINVVKRKLGAHDNLKLTITQEGNKFTVKESSNFRNIDVVFELGVDFAYSWTGGTELTGTWTMEGNKLVGKFKRVDNGKELIAVREISGNELIQTYTYEGVEAKRIFKKE ?
*A* 3.394

*Q* Could you share which DR/DR LNA value was measured for 72T 73V 74V (protein, listed as Rattus norvegicus, PEPTIDE (1)...(131) wild-type rat intestinal fatty acid binding protein) AFDGTWKVDRNENYEKFMEKMGINVVKRKLGAHDNLKLTITQEGNKFTVKESSNFRNIDVVFELGVDFAYSTVVGTELTGTWTMEGNKLVGKFKRVDNGKELIAVREISGNELIQTYTYEGVEAKRIFKKE ?
*A* 3.618

*Q* Could you share which DR/DR LNA value was measured for 106C2, 72A (protein, listed as Rattus norvegicus, PEPTIDE (1)...(131) wild-type rat intestinal fatty acid binding protein) AFDGTWKVDRNENYEKFMEKMGINVVKRKLGAHDNLKLTITQEGNKFTVKESSNFRNIDVVFELGVDFAYSAADGTELTGTWTMEGNKLVGKFKRVDNGKELIAVCEISGNELIQTYTYEGVEAKRIFKKE ?
*A* 0.22

*Q* Could you share which DR/DR LNA value was measured for 68Y, 72A (protein, listed as Rattus norvegicus, PEPTIDE (1)...(131) wild-type rat intestinal fatty acid binding protein) AFDGTWKVDRNENYEKFMEKMGINVVKRKLGAHDNLKLTITQEGNKFTVKESSNFRNIDVVFELGVDYAYSAADGTELTGTWTMEGNKLVGKFKRVDNGKELIAVREISGNELIQTYTYEGVEAKRIFKKE ?
*A* 0.41

*Q* Could you share which DR/DR LNA value was measured for 102H, 72A (protein, listed as Rattus norvegicus, PEPTIDE (1)...(131) wild-type rat intestinal fatty acid binding protein) AFDGTWKVDRNENYEKFMEKMGINVVKRKLGAHDNLKLTITQEGNKFTVKESSNFRNIDVVFELGVDFAYSAADGTELTGTWTMEGNKLVGKFKRVDNGKEHIAVREISGNELIQTYTYEGVEAKRIFKKE ?
*A* 0.63

*Q* Could you share which DR/DR LNA value was measured for 14G, 72A (protein, listed as Rattus norvegicus, PEPTIDE (1)...(131) wild-type rat intestinal fatty acid binding protein) AFDGTWKVDRNENGEKFMEKMGINVVKRKLGAHDNLKLTITQEGNKFTVKESSNFRNIDVVFELGVDFAYSAADGTELTGTWTMEGNKLVGKFKRVDNGKELIAVREISGNELIQTYTYEGVEAKRIFKKE ?
*A* 0.46

*Q* Could you share which DR/DR LNA value was measured for 55H2, 72A (protein, listed as Rattus norvegicus, PEPTIDE (1)...(131) wild-type rat intestinal fatty acid binding protein) AFDGTWKVDRNENYEKFMEKMGINVVKRKLGAHDNLKLTITQEGNKFTVKESSNHRNIDVVFELGVDFAYSAADGTELTGTWTMEGNKLVGKFKRVDNGKELIAVREISGNELIQTYTYEGVEAKRIFKKE ?
*A* 0.32

*Q* Could you share which DR/DR LNA value was measured for 11Y, 72A (protein, listed as Rattus norvegicus, PEPTIDE (1)...(131) wild-type rat intestinal fatty acid binding protein) AFDGTWKVDRYENYEKFMEKMGINVVKRKLGAHDNLKLTITQEGNKFTVKESSNFRNIDVVFELGVDFAYSAADGTELTGTWTMEGNKLVGKFKRVDNGKELIAVREISGNELIQTYTYEGVEAKRIFKKE ?
*A* 0.311
